Origin of values: ChEMBL document CHEMBL5042538

study_system: Cytochrome P450 3A7 (Homo sapiens)
Sequence (P24462 whole entry): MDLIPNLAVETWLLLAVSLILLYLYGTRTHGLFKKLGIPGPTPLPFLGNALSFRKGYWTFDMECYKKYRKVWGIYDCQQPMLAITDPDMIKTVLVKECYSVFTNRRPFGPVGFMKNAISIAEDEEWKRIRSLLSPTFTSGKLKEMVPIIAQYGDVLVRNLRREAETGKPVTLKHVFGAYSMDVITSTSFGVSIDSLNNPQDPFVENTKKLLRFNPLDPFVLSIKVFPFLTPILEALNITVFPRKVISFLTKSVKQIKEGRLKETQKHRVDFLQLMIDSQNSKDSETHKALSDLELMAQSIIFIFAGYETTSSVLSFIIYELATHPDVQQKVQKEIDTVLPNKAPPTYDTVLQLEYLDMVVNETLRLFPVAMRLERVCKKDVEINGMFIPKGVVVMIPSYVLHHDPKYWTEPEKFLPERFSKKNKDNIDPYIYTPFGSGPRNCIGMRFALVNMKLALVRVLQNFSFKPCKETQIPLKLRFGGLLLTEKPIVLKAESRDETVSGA
experimental_details: Time dependent inhibition of recombinant human CYP3A7 incubated for 30 mins in presence of NADPH generating system by LC-MS/MS analysis
Format: ADME
metric_name: IC50
Lab note: write values as number then unit, every time.

Quick one: IC50 of `C[C@]12CCC(=O)C[C@H]1CC[C@@H]1[C@@H]2CC[C@]2(C)[C@@H](c3ccc(=O)oc3)CC[C@]12O` ?
10.8 µM

====

Test system: CYP3A
experimental_details: Time dependent inhibition of CYP3A in human liver microsomes assessed as enzyme remaining activity at 10 uM using N-ethyl-1,8-naphthalimide as substrate preincubated for 30 mins in presence of NADPH generating system followed by substrate addition and incubated for 10 mins by microplate reader analysis relative to control
Format: ADME
reported_conditions: probe N-ethyl-1,8-naphthalimide, time 40 min, read-out: TDI
metric_name: activity at 10 min, 10 µM (%)
Provide only the numeric value, understood in %.

Quick one: activity at 10 min, 10 µM of `C[C@]12CC[C@H](O)C[C@H]1CC[C@@H]1[C@@H]2CC[C@]2(C)[C@@H](c3ccc(=O)oc3)CC[C@]12O` ?
6.81
